- TARGET UNDER TEST: EGFR-L858R/T790M (Homo sapiens, UniProt P00533, L858R/T790M)
- Construct: purchased Invitrogen PV4879
- Sequence (P00533 25-1210 T790M/L858R): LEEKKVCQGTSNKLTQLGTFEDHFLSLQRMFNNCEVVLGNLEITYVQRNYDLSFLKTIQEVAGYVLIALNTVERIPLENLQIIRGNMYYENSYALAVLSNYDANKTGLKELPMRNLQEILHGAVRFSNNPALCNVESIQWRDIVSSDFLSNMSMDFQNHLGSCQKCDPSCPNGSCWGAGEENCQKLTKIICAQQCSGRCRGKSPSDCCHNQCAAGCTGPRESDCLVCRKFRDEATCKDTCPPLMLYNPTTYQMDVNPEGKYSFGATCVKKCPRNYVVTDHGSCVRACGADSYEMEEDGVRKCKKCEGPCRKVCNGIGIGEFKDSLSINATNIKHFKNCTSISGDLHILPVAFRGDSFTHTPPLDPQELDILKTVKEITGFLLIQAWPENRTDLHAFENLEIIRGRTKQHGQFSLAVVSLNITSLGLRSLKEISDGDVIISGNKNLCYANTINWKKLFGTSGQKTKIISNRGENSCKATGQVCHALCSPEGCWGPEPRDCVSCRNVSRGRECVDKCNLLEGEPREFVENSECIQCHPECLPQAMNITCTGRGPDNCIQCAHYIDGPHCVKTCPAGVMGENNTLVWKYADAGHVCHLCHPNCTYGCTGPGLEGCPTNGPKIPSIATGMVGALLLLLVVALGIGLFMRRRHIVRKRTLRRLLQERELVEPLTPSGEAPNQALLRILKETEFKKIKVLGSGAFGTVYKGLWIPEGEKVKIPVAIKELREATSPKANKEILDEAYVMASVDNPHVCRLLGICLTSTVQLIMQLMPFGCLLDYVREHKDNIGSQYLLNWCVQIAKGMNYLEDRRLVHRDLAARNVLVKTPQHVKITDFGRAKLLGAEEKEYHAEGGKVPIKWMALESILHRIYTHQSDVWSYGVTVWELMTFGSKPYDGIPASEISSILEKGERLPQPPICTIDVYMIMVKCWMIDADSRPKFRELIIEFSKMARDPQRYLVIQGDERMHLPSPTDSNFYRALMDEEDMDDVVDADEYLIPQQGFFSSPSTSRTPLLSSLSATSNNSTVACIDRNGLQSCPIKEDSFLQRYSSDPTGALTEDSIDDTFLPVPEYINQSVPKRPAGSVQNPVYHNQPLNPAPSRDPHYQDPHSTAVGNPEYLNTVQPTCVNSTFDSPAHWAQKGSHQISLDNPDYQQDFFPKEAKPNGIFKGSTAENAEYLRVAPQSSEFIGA
- EXPERIMENT DESCRIPTION: Kinase activity test (FRET), EGFR T790M/L858R
- Format: biochemical
- EXPERIMENTAL PARAMETERS: EGFR T790M/L858R; read-out: Inhibitory activity of EGFR on kinase (IC50, nM) T790M/L858R
PROPERTY NAME: IC50 (nM)

(a) C=CC(=O)N1CCC[C@@H](n2c(=O)cnc3cnc(Nc4ccc(N5CCN(C)CC5)cc4OC)nc32)C1
(b) C=CC(=O)Nc1cccc(-n2c(=O)c(C(F)(F)F)nc3cnc(Nc4ccc(N5CCN(C)CC5)c(OC)c4)nc32)c1
(c) C=CC(=O)N1CC[C@H](n2c(=O)c(-c3ccccc3)nc3cnc(Nc4ccc(N5CCN(C)CC5)cc4OC)nc32)C1
(d) C=CC(=O)Nc1cccc(-n2c(=O)c(C(C)C)nc3cnc(Nc4ccc(N5CCN(C)CC5)cc4)nc32)c1
-- ask Sort ascending by IC50. Please respond with the labels ordered as the question requires.
-- reply b, c, d, a
